# maps each entry to its Emax
- SYSTEM_UNDER_TEST: M4 muscarinic receptor (Homo sapiens)
- Construct: expressed in transfected cells; host or cells: CHO (M4-CHO)
- Sequence (P08173 1-479): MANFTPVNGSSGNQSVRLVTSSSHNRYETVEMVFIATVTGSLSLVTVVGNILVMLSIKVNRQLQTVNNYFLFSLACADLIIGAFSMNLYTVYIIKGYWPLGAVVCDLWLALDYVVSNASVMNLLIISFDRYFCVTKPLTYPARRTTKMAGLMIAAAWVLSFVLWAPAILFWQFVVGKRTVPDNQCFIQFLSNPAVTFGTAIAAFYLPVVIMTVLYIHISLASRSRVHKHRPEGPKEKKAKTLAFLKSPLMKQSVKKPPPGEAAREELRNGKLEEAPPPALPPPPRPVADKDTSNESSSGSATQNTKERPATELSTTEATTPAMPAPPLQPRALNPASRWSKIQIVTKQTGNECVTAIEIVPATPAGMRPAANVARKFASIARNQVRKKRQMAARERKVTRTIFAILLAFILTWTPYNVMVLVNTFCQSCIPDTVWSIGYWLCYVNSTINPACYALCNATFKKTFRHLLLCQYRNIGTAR
- TEST_NAME: Functional mobilization of intracellular calcium (FLIPR) in M4-CHO cells
- Type: cell-based
- CONDITION_INFO: M4 receptor, calcium mobilization; read-out: M4 Efficacy

Query string: Please indicate recorded Emax of CCOC(=O)N[C@@H]1CC2(CCN(C[C@H]3C[C@H]4CC[C@H]3C4)CC2)c2ccccc21 [compound 275] measured with M4 muscarinic receptor (Homo sapiens).
Result string: > 85%

Query string: Enter Emax (test system M4 muscarinic receptor (Homo sapiens)) for CCOC(=O)N1CCC(N2CCC3(CC2)C[C@H](NC(C)=O)c2ccccc23)CC1 [compound 61]
Result string: 65 to 85%

Query string: State Emax (M4 muscarinic receptor (Homo sapiens)) of CCCOC(=O)N1C2CCC1CC(N1CCC3(CC1)CN(S(C)(=O)=O)c1ccc(F)cc13)C2 (centres unmarked) [compound 294] .
Result string: 65 to 85%

Query string: Param request: Emax | system M4 muscarinic receptor (Homo sapiens) | item CCCOC(=O)N1CCC(CN2CCC3(CC2)C[C@H](NC(C)=O)c2ccccc23)CC1 [compound 36]
Result string: > 85%

Query string: Name the recorded Emax of CCOC(=O)N1CCC(N2CCC3(CC2)CN(C(C)=O)c2ccc(Cl)cc23)CC1 [compound 141] , assay system M4 muscarinic receptor (Homo sapiens).
Result string: > 85%

Query string: Jot down Emax (M4 muscarinic receptor (Homo sapiens)) of CCOC(=O)N1CCC(N2CCC3(CC2)CN(C(=O)C(C)C)c2ccc(F)cc23)CC1 [compound 142] .
Result string: > 85%

Query string: Please indicate recorded Emax of Clc1ccc2c(c1)C1(CCN(C3CC4CCC3C4)CC1)CN2 (centres unmarked) [compound 224] measured with M4 muscarinic receptor (Homo sapiens).
Result string: < 65%

Query string: Report measured Emax on M4 muscarinic receptor (Homo sapiens); entry: Fc1ccc2c(c1)C1(CCN(C3CCCCC3)CC1)CN2 [compound 325]
Result string: < 65%

----------
- SYSTEM_UNDER_TEST: M1 muscarinic receptor (Homo sapiens, UniProt P11229)
- Construct: expressed in transfected cells; host or cells: CHO (M1-CHO)
- Sequence (P11229 whole entry): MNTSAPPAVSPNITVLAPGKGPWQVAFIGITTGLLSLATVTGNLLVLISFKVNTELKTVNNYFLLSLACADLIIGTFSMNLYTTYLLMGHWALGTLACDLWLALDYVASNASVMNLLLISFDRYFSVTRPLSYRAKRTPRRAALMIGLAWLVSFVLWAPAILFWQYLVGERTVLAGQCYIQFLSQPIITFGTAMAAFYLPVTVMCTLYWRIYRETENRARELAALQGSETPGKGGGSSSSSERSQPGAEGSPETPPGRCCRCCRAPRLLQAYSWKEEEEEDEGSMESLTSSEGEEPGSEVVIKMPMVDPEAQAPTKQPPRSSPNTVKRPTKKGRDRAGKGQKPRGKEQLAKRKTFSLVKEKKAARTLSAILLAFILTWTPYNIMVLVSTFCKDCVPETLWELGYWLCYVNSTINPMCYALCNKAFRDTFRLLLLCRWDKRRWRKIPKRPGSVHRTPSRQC
- TEST_NAME: Functional mobilization of intracellular calcium (FLIPR) in M1-CHO cells
- Format: cell-based
- CONDITION_INFO: M1 receptor, calcium mobilization; read-out: M1 Efficacy
Reported Emax values for a set of compounds

Query string: Print M1 muscarinic receptor (Homo sapiens, UniProt P11229) Emax for COCCOC(=O)N1C2CCC1CC(N1CCC3(CC1)CN(C(=O)OC)c1ccc(F)cc13)C2 (stereo not shown) .
Result string: > 85%

Query string: Provide Emax, recorded with M1 muscarinic receptor (Homo sapiens, UniProt P11229), of CCOC(=O)N1C2CCC1CC(N1CCC3(CC1)c1ccccc1C(=O)C3(C)C)C2 (stereo not shown)
Result string: 65 to 85%

Query string: Provide M1 muscarinic receptor (Homo sapiens, UniProt P11229) Emax reading for O=C1CC2(CCN(C[C@H]3C[C@H]4C=C[C@H]3C4)CC2)c2ccccc21 .
Result string: 65 to 85%

Query string: Please indicate recorded Emax of CCOC(=O)N1CCC(N2CCC3(CC2)CN(CC(=O)CC)c2ccc(F)cc23)CC1 measured with M1 muscarinic receptor (Homo sapiens, UniProt P11229).
Result string: > 85%
